# Test system: HCV replicon in Huh-7 luc/neo cells
# Measurement Protocol: Suppression of HCV replicon replication by conditioned media from compound-treated PBMC
# Assay type: cell-based, HCV type 1 b
# Stated Conditions: Hepatitis C virus; conditioned media from compound-treated PBMC on Huh-7 luc/neo replicon cells (compounds 74 onward); read-out: PBMC HUH-7 EC50
Field: label. Allowed values: TRUE (EC50 < 700 nM) or FALSE (EC50 >= 700 nM).

| Molecule | Discrete Label |
| --- | --- |
| CCCCNc1nc(N)ncc1OCc1cc(OC2CCOC2)c(OC)cn1 (stereo not shown) [Compound 174] | TRUE |
| CCCCNc1nc(N)ncc1OCc1cc(OC)ccn1 [Compound 171] | TRUE |
| CCCCNc1nc(N)ncc1OCCOCc1ccccc1 [Compound 83] | TRUE |
| CCCC[C@@H](CO)Nc1nc(N)ncc1OCc1ncc(C)c(OC)c1C [Compound 194] | TRUE |
| CC[C@H](C)[C@@H](CO)Nc1nc(N)ncc1OCCCc1ccccc1 [Compound 115] | FALSE |
| CCCCNc1nc(N)ncc1OCCCc1ccc(OC)c(OC)c1 [Compound 74] | TRUE |
| CCCCNc1nc(N)ncc1OCCOc1cccnc1 [Compound 143] | TRUE |
| CCCCNc1nc(N)ncc1OCc1cc(C)n(C)n1 [Compound 117] | TRUE |
| CCCCNc1nc(N)ncc1OCCC(c1ccccc1)c1ccccc1 [Compound 167] | FALSE |
| CCCCNc1nc(N)ncc1OCc1cccc2c1OCCCO2 [Compound 138] | TRUE |
| CCCCNc1nc(N)ncc1OCc1nn(C)c2cc(OC)c(OC)cc12 [Compound 183] | TRUE |
| CCCCNc1nc(N)ncc1OCCOc1cc(C(C)C)nc2cc(OC)ccc12 [Compound 142] | FALSE |
| CCCCNc1nc(N)ncc1OCCOc1cccc(OC)c1OC [Compound 130] | TRUE |
| CCCCNc1nc(N)ncc1OCc1cc2ccccc2n(CCC(C)C)c1=O [Compound 158] | FALSE |
| CCCCNc1nc(N)ncc1OCc1nn(C)c(C)c1N [Compound 85] | TRUE |
| CCCCNc1nc(N)ncc1OCCOc1ccncc1 [Compound 84] | TRUE |
| CCCCNc1nc(N)ncc1OCC1CCCO1 (stereo not shown) [Compound 100] | FALSE |
| CCCCNc1nc(N)ncc1OCc1cc(C(=O)OCC)ccn1 [Compound 170] | FALSE |
| CCC[C@@H](CO)Nc1nc(N)ncc1OCc1nccc2ccccc12 [Compound 195] | TRUE |
| CCCCNc1nc(N)ncc1O[C@@H](C)c1ccccc1 [Compound 99] | FALSE |
| CCCC[C@@H](CO)Nc1nc(N)ncc1OCCCc1ccccc1 [Compound 154] | FALSE |
| CCCCNc1nc(N)ncc1OCc1cc(OC2Cc3ccccc3C2)c(OC)cn1 [Compound 172] | TRUE |
| CCCCNc1nc(N)ncc1OCCOc1ccnc2ccsc12 [Compound 136] | TRUE |
| CCC[C@@H](CCO)Nc1nc(N)ncc1OCc1nccc(OC)c1OC [Compound 87] | TRUE |
| CCCCCNc1nc(N)ncc1OC(C)c1ccccc1 (stereo not shown) [Compound 96] | FALSE |
| CCCCNc1nc(N)ncc1OCc1ccc(C(F)(F)F)nc1 [Compound 121] | TRUE |
| CCCCNc1nc(N)ncc1OCCCc1cc(OC)c(OC)c(OC)c1 [Compound 160] | TRUE |
| CCCCNc1nc(N)ncc1OCc1cncn1[C@H](C)c1ccccc1 [Compound 102] | TRUE |
| CCCCNc1nc(N)ncc1OCc1cccc(C)n1 [Compound 122] | TRUE |
| CCCC(COC)Nc1nc(N)ncc1OC (stereo not shown) [Compound 106] | FALSE |
| CCCCNc1nc(N)ncc1OCc1cc(C(F)(F)F)n(C)n1 [Compound 181] | TRUE |
| CCCC(CCC)Nc1nc(N)ncc1OCCCc1ccccc1 [Compound 114] | FALSE |
| CCCCNc1nc(N)ncc1OCCCc1cc(OC)cc(OC)c1 [Compound 147] | FALSE |
| CCCCNc1nc(N)ncc1OCCOc1cc(OC)cc(OC)c1 [Compound 129] | TRUE |
| CCCCNc1nc(N)ncc1OCCCc1ccc(C(F)(F)F)cc1 [Compound 153] | FALSE |
| CCCCNc1nc(N)ncc1O[C@H](C)c1ccccc1 [Compound 98] | FALSE |
| CCCCNc1nc(N)ncc1OCc1nccc(OCC(F)(F)F)c1C [Compound 139] | TRUE |
| CCCCNc1nc(N)ncc1OCCOc1ccc(C(=O)OC)cc1OC [Compound 132] | TRUE |

Origin of the recorded values: patent US11541050B2
